- measurement notes: Inhibition of HIV1 NL4-3 protease assessed as decrease in viral replication in human MT2 cells after 4 days by luciferase reporter gene assay
pEC50: −log10 of the molar value.
measured property: pEC50

A = COC(=O)N[C@H](C(=O)N[C@@H](Cc1ccccc1)[C@@H](O)CN(Cc1ccc(-c2ccccn2)cc1)NC(=O)[C@@H](NC(=O)OC)C(C)(C)C)C(C)(C)C
B = COC(=O)N[C@H](C(=O)NN(Cc1ccc(-c2ccccn2)cc1)C[C@H](OC(=O)[C@@H](NC(=O)OC)C(C)(C)C)[C@@H](N)Cc1ccccc1)C(C)(C)C
C = COC(=O)N[C@H](C(=O)NN(Cc1ccc(-c2ccccn2)cc1)C[C@H](OC(=O)[C@@H](NC(=O)OC)C(C)(C)C)[C@H](Cc1ccccc1)NC(=O)OC(OC(=O)[C@@H](N)C(C)C)C(C)C)C(C)(C)C (stereo partly drawn)
Asked: From the records above, write out the order of decreasing pEC50. I would appreciate it if you listed the labels in the requested order.
Given back: A, B, C
(A: 9.15, B: 8.74, C: 8.28)
